Hello, the source for this data is patent US20150166606A1, in case you need it.

Target: Activated human plasma kallikrein (Enzyme Research Laboratories, HPKa 1303) (human, UniProt P03952 20-638)
Sequence (P03952 20-638 limits assumed): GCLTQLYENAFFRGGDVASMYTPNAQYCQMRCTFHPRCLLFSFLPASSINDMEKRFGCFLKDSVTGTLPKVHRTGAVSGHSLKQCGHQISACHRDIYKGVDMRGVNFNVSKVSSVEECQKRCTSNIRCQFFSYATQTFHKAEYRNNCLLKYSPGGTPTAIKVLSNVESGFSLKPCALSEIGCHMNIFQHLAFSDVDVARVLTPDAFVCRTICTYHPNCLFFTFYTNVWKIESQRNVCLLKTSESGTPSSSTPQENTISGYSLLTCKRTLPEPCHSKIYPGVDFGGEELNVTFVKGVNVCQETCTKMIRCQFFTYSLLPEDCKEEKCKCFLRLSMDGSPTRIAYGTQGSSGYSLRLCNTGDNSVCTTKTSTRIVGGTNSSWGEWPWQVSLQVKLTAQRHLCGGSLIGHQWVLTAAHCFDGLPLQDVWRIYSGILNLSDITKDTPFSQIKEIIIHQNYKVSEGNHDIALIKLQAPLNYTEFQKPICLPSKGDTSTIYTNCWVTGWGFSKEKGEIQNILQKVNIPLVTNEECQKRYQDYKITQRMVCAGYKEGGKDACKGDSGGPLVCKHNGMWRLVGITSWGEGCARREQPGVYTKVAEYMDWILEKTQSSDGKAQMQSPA
Experiment: cell-based or functional assay
Bridge positions count the residues as written; N and C are the ends. Square brackets hold non-standard residues; d marks the D form. mXylyl = xylyl linker from dibromoxylene joining the two cysteines; des‑NH2 = missing amino-terminal amine group; Chg = N[C@H](C(=O)O)C1CCCCC1; Tle = CC(C)(C)[C@H](N)C(=O)O; Ac5c = NC1(C(=O)O)CCCC1; Aib = CC(C)(N)C(=O)O; Mpa = O=C(O)CCS
measurement-label: Avg. IC50 (nM)
Reply numerically in nM, unit not repeated.

// Avg. IC50 lookup, binder = [Mpa][Ac5c]A[Chg]CRV-OH (linker 1-5 via mXylyl) [R2175] , result: 379

# Avg. IC50 of {des‑NH2}-CE(PEG 40 kDa)[Chg]CR[Tle]-NH2 (linker 1-4 via mXylyl) [R2213] = 462

So, [Mpa][Aib][Chg]CR[Tle]-NH2 (linker 1-4 via mXylyl) [R2176] ? Its Avg. IC50 was 15.2
